Test system: K562 cells
Experiment: CCK-8 antiproliferative assay, K562
Conditions: Homo sapiens, K562, 72 h, read-out: Antiproliferative IC50 K562
observation_type: IC50 (µM)

Recorded IC50, per entry:
CCCNNC(=O)c1ccc(N2CCN(C(=O)c3cc(-c4ccc(-c5ccccc5)cc4)nc4ccccc34)CC2)cc1 [Compound D29] = 5.27
O=C(CCCCCCC(=O)Nc1ccccc1)NO [SAHA, Vorinostat, reference compound] = 1.55

A. O=C(NO)c1ccc(N2CCN(C(=O)c3cc(-c4ccc(-c5ccccc5)cc4)nc4ccccc34)CC2)cc1 [Compound D28]
B. CCCCNNC(=O)c1ccc(N2CCN(C(=O)c3cc(-c4ccc(-c5ccccc5)cc4)nc4ccccc34)CC2)cc1 [Compound D30]
[in] IC50 comparison. Which is larger, A or B ? # answer = label of selected item
[out] B
(B: 7.66 µM, A: 1.02 µM)

Origin of values: paper PMC9333195
